Subject Of Test: recombinant human cannabinoid CB1 receptor (Homo sapiens)
Construct: purchased Receptor Biology RB-HCB1
Sequence (P21554 whole entry): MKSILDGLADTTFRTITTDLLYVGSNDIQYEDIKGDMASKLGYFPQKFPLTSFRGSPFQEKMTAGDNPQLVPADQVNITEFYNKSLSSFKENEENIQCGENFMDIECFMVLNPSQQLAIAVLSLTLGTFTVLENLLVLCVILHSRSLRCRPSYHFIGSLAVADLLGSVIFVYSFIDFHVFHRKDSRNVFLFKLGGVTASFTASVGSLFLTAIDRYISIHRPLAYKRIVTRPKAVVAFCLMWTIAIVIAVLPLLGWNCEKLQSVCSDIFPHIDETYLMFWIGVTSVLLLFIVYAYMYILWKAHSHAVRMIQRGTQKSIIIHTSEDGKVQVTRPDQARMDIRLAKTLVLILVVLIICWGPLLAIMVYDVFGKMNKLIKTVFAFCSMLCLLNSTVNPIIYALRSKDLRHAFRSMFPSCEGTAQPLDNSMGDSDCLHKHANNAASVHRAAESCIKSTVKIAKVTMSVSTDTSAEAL
Assay Remarks: [3H] CP-55,940 competition binding to recombinant cannabinoid receptor membranes (CB1), reported as the CB1/CB2 selection ratio
Conditions: Ki CB1 / Ki CB2, same binding assay
Recorded Metric: selection ratio of the Ki value of the CB1 receptor to that of the CB2 receptor

Inquiry: What value of measured selection ratio of the Ki value of the CB1 receptor to that of the CB2 receptor is listed for CS(=O)(=O)NCC1CC2CCC(C1)N2S(=O)(=O)c1cc2ccccc2n1S(=O)(=O)c1ccccc1F (stereo not shown) [compound 47] ?
Reply text: ~790

Inquiry: Look up selection ratio of the Ki value of the CB1 receptor to that of the CB2 receptor for this compound: Cn1c(S(=O)(=O)N2CCC3(CC2)CC3NS(=O)(=O)C(F)(F)F)c(S(=O)(=O)c2ccccc2F)c2ccccc21 (stereo not shown) [compound 61]
Reply text: ~1200

Inquiry: selection ratio of the Ki value of the CB1 receptor to that of the CB2 receptor for O=S(=O)(c1cc2cccnc2n1S(=O)(=O)c1ccccc1F)N1CC2C(CNS(=O)(=O)C(F)(F)F)C2C1 (stereo not shown) [compound 60] ?
Reply text: ~4100

Note: attention shifts to another entry.
Inquiry: I am curious: what selection ratio of the Ki value of the CB1 receptor to that of the CB2 receptor value has been reported for CS(=O)(=O)NCC1C2CN(S(=O)(=O)c3cc4ccccc4n3S(=O)(=O)c3ccccc3F)CC12 (stereo not shown) [compound 13] ?
Reply text: ~3400
